# credit: paper PMC5681660

assay.target: human NTCP (Homo sapiens, UniProt Q14973)
Sequence (Q14973 1-349): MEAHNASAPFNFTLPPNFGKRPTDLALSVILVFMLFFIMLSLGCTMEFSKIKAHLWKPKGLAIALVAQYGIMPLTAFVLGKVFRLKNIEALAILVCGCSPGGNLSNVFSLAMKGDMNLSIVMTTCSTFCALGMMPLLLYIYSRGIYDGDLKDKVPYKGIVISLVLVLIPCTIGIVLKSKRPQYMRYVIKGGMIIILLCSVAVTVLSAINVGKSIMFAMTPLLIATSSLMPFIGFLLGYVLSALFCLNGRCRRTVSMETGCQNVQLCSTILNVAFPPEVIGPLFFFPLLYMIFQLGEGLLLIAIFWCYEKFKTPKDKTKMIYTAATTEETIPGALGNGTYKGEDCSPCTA
protocol: Screening taurocholate uptake assay (96-well, [14C]taurocholate, 10 µM drug)
measurement.parameters: screening taurocholate uptake, 10 µM drug
Structures can show the parent of a compound that is named as a salt.
The recorded B-score functional assay of each item maps onto one of these classes: LOW (below -2), MEDIUM (-2 to below -0.03), HIGH (-0.03 or more)

Please review the entries below; each comes with its answer.
CC(=O)NC1CCSC1=O (racemic): HIGH
CC(=O)OCC(CCn1cnc2cnc(N)nc21)COC(C)=O: HIGH
CC(=O)N[C@@H](CS)C(=O)O: MEDIUM
C#C[C@]1(O)CC[C@H]2[C@@H]3CCC4=CC(=O)CC[C@@H]4[C@H]3CC[C@@]21C: MEDIUM
O=C(O)c1cc(-c2ccc(F)cc2F)ccc1O: LOW

# bin label for O=C1[C@H](CC[C@H](O)c2ccc(F)cc2)[C@@H](c2ccc(O)cc2)N1c1ccc(F)cc1 [ezetimibe, reference compound]
LOW

# bin label for COc1ccc(CCN2CCC(Nc3nc4ccccc4n3Cc3ccc(F)cc3)CC2)cc1
HIGH

# bin label for CC[N+](CC)(CC)CCOc1cccc(OCC[N+](CC)(CC)CC)c1OCC[N+](CC)(CC)CC [Gallamine triethiodide]
HIGH

# bin label for COc1c(N2CCNC(C)C2)c(F)cc2c(=O)c(C(=O)O)cn(C3CC3)c12 (centres unmarked)
MEDIUM

# bin label for NC(=O)OCC(COC(N)=O)c1ccccc1 [Felbamate]
HIGH

# bin label for CC(=O)Nc1ccc(OCC(O)CNC(C)C)cc1 (centres unmarked)
LOW

# bin label for CCC(NC(C)C)C(O)c1ccc(O)c(O)c1.CS(=O)(=O)O (centres unmarked) [Isoetharine mesylate salt]
MEDIUM

# bin label for C=CCN1CCCC1CNC(=O)c1cc2[nH]nnc2cc1OC.Cl (centres unmarked) [Alizapride HCl]
HIGH

# bin label for C=CC1=C(C(=O)O)N2C(=O)[C@@H](NC(=O)/C(=N\OCC(=O)O)c3csc(N)n3)[C@H]2SC1
LOW

# bin label for Cc1c(O)cccc1C(=O)N[C@@H](CSc1ccccc1)[C@H](O)CN1C[C@H]2CCCC[C@H]2C[C@H]1C(=O)NC(C)(C)C [Nelfinavir mesylate]
LOW

# bin label for C[C@@H](O[C@H]1OCCN(Cc2n[nH]c(=O)[nH]2)[C@H]1c1ccc(F)cc1)c1cc(C(F)(F)F)cc(C(F)(F)F)c1 [Aprepitant]
LOW

# bin label for CCOC(=O)N1CCC(=C2c3ccc(Cl)cc3CCc3cccnc32)CC1
LOW
